Cited source for all entries: patent US9051270B2

- method_summary: Microsomal stability assay, human liver microsomes (HLM)
- Type: in vitro ADME
- condition_parameters: human liver microsomes 0.5 mg/mL, 1 uM substrate, 2 mM NADPH, 37° C., referenced against time zero control
readout_name: HLM (% remaining @ 30 minutes) (%)

a = CC(C)(C)c1ccc(C(=O)Nc2ccc(=O)[nH]c2)c(Oc2ccc(C(F)(F)F)nc2)c1
b = O=C(Nc1cc[nH]c(=O)c1)c1cc(C(F)(F)F)ccc1Oc1ccc(F)cc1
Hey, between a and b which has a smaller measured HLM (% remaining @ 30 minutes)? Bench note: the answer is the label of the chosen record.
a

* * *

- system: human Nav1.8 (Homo sapiens (Human))
- method_summary: E-VIPR optical membrane potential assay with electrical stimulation
- condition_parameters: HEK cells expressing human Nav1.8
readout_name: IC50 (nM)

COc1ccc(Oc2ccc(C(F)(F)F)cc2C(=O)Nc2cc[nH]c(=O)c2)c(F)c1 [Compound 55] = 70
O=C(Nc1cc[nH]c(=O)c1)c1ccc(C(F)(F)C(F)(F)F)cc1Oc1ccc(F)cc1 [Compound 88] = 12
O=C(Nc1cc[nH]c(=O)c1)c1cc(F)ccc1Oc1ccc(OCCCC(F)(F)F)cc1 [Compound 160] = 1390
Cc1ccc(Oc2cc(C(F)(F)F)ccc2C(=O)Nc2cc[nH]c(=O)c2)cn1 [Compound 146] = 4600
Cc1cc(C)c(C)c(Oc2ccc(F)cc2C(=O)Nc2cc[nH]c(=O)c2)c1 [Compound 94] = 1400
O=C(Nc1cc[nH]c(=O)c1)c1c(Oc2ccc(F)cc2)cc(C(F)(F)F)cc1C(F)(F)F [Compound 155] = 11
COc1cc(F)ccc1Oc1ccc(C(F)(F)F)cc1C(=O)Nc1cc[nH]c(=O)c1 [Compound 30] = 11
O=C(Nc1cc[nH]c(=O)c1)c1cc(C(F)(F)F)ccc1OC1C[C@@H]2C[C@@H]2C1 (stereo partly drawn) [Compound 135] = 1650

I = O=C(Nc1cc[nH]c(=O)c1)c1ccc(Cl)cc1Oc1c(F)cccc1F [Compound 19]
II = COc1c(F)cccc1Oc1cc(C(F)(F)F)ccc1C(=O)Nc1cc[nH]c(=O)c1 [Compound 87]
Could you check which of I and II has a smaller value for IC50? Label of pick, please.
II

a = COc1cc(F)ccc1Oc1cc(C(F)(F)F)ccc1C(=O)Nc1cc[nH]c(=O)c1 [Compound 158]
b = Cc1ccc(Oc2ccc(OC(F)(F)F)cc2C(=O)Nc2cc[nH]c(=O)c2)cc1 [Compound 35]
Lab notebook, comparison: a versus b , higher IC50 goes to which? // output: label of the selected item
b

* * *

- system: human Nav1.8 (Homo sapiens (Human), UniProt Q9Y5Y9)
- Sequence (Q9Y5Y9 whole entry): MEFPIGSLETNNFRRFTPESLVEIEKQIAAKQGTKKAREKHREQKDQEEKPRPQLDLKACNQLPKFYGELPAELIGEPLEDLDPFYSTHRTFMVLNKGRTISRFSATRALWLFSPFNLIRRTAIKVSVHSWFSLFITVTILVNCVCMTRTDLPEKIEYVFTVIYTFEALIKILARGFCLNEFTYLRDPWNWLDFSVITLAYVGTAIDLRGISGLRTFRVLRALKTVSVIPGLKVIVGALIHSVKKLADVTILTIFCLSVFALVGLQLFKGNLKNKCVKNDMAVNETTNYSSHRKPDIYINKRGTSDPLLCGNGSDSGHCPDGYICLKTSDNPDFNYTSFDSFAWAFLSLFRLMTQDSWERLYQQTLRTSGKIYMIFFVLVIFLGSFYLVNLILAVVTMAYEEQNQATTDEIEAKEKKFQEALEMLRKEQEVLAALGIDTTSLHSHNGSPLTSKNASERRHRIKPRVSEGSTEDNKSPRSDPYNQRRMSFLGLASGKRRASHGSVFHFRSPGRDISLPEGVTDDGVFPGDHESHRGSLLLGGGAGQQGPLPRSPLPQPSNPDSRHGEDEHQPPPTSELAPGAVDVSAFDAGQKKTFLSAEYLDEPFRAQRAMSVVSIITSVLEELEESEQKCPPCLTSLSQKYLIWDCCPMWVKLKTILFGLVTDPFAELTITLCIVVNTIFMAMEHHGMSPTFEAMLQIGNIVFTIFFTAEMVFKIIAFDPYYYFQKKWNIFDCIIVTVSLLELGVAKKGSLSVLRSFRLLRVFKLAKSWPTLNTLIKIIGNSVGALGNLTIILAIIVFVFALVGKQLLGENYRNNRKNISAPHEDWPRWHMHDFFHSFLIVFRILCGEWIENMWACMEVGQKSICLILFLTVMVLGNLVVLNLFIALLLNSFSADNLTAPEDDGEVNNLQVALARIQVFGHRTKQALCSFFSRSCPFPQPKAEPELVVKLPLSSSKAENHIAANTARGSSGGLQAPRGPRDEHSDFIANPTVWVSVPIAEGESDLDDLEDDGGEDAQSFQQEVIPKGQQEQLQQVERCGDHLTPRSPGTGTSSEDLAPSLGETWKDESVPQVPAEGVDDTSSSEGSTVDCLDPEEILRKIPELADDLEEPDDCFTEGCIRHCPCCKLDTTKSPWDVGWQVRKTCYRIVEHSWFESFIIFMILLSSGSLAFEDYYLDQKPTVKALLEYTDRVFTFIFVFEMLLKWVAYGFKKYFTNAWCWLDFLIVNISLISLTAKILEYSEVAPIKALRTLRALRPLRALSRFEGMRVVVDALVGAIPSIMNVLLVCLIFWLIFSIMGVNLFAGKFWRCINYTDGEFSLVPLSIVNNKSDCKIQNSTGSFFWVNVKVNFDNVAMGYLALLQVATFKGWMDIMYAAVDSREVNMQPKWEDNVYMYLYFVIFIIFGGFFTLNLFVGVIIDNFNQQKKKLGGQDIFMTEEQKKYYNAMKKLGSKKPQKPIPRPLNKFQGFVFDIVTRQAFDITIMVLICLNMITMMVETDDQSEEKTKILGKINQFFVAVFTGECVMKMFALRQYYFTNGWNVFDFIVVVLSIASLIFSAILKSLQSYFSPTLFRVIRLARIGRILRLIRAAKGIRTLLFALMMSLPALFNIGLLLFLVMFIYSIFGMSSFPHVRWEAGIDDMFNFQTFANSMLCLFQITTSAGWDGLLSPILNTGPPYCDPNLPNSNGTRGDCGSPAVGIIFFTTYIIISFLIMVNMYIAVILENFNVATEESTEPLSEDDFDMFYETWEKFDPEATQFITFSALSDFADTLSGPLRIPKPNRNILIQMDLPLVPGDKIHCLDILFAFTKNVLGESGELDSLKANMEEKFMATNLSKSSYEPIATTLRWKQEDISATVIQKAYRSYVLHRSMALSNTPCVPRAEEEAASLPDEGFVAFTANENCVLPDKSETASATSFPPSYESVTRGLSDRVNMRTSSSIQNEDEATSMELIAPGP
- method_summary: E-VIPR optical membrane potential assay with electrical stimulation
- condition_parameters: HEK cells expressing human Nav1.8
pIC50: −log10 of the molar value.
readout_name: pIC50

1 = O=C(Nc1cc[nH]c(=O)c1)c1cc(OC(F)(F)F)ccc1Oc1ccc(F)cc1
2 = Cc1cc(F)ccc1Oc1ccc(C(F)(F)F)cc1C(=O)Nc1cc(Cl)[nH]c(=O)c1
Given 1 and given 2 , which shows the smaller recorded pIC50? Label of pick, please.
2

* * *

- system: human Nav1.8 (Homo sapiens (Human), UniProt Q9Y5Y9)
- method_summary: E-VIPR optical membrane potential assay with electrical stimulation
- condition_parameters: HEK cells expressing human Nav1.8
pIC50: −log10 of the molar value.
readout_name: pIC50

O=C(Nc1cc[nH]c(=O)c1)c1ccc(C(F)(F)F)cc1OCC1CCCC1 = 6.82
O=C(Nc1cc[nH]c(=O)c1)c1cc(Cl)ccc1Oc1ccc(F)cc1 = 7.16
CC(C)Oc1ccccc1Oc1ccc(C(F)(F)F)cc1C(=O)Nc1cc[nH]c(=O)c1 = 6.97
